Data provenance: patent US20240246981A1

- assayed.system: QPCTL (Homo sapiens (Human))
- Sequence (Q9NXS2 whole entry): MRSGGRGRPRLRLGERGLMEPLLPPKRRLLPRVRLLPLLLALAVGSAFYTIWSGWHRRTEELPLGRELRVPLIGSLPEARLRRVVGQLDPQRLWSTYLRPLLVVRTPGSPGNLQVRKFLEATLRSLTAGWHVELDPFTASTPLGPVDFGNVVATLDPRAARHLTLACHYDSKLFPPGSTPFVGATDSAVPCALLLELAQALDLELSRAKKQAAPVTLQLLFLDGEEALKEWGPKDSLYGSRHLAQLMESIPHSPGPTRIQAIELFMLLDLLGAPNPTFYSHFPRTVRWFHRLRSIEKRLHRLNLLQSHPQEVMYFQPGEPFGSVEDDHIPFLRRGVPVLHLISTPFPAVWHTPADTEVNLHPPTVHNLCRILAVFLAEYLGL
- experiment.notes: Assay A: biochemical QPCTL activity assay (MALDI-TOF MS)
- stated.conditions: compounds of the invention, Table 2; read-out: Inhibition of QPCTL: IC50
# label = criterion met if IC50 < 2 nM else criterion not met

compound	category
Cc1cc(F)ncc1-c1cccc(C#N)c1N1CCC(F)(c2nncn2C)CC1 [compound 83]	criterion met
Cn1cnnc1C1(F)CCN(c2c(C#N)cccc2-c2ccc(F)nc2)CC1 [compound 56]	criterion met
CC(C)Oc1cc(-c2cccc(C#N)c2N2CCC(c3nncn3C)CC2)cnc1F [compound 19]	criterion met
Cn1cnnc1C1CCN(c2c(C#N)cccc2-c2cnc3c(c2)NCCO3)CC1 [compound 24]	criterion not met
Cn1cnnc1C1CCN(c2c(C#N)cccc2-c2cncc(CO)c2)CC1 [compound 9]	criterion not met
Cn1cnnc1C1CCN(c2c(C#N)cccc2-c2cnsc2)CC1 [compound 2]	criterion not met
COC(=O)c1cncc(-c2cccc(C#N)c2N2CCC(c3nncn3C)CC2)c1 [compound 27]	criterion not met
Cc1cncc(-c2cccc(C#N)c2N2CCC(c3nncn3C)CC2)c1 [compound 11]	criterion not met
